Molecular target: T1, human amylin receptor 3 (AMY3) (human, UniProt P30988 25-474; O60896 24-148)
T1 sequence (looked up) 1: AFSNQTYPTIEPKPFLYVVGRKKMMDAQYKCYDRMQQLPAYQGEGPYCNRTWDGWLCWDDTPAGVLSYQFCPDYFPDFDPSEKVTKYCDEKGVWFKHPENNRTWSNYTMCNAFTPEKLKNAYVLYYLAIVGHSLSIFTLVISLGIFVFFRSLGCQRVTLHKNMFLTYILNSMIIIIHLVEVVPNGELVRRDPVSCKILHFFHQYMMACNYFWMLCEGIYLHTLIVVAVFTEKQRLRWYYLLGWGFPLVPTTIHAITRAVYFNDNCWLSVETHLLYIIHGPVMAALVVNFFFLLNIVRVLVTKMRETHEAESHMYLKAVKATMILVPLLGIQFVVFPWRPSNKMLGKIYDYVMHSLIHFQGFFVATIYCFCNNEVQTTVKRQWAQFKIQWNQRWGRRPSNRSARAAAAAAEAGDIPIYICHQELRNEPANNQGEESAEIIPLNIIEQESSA
T1 sequence (looked up) 2: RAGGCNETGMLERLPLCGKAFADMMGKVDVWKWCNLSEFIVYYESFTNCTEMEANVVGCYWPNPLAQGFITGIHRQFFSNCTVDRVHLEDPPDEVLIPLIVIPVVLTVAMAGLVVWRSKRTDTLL
Experiment: cell-based or functional assay
No end group written: not given here.

{"binder": "CNTATCATQRLANFLVHSSNNFGPILPK(mPEG40KD)TNVGSNTY-NH2 (ends and bridges not checked, also called Compound 36) [Cmpd 36, [K^29(mPEG40KD)]-Cmpd 18]", "EC50 (nM), cAMP accumulation (HTRF)": 0.159}
{"binder": "CNTATCATQRLANFLVK(mPEG40KD)SSNNFGPILPPTNVGSNTY-NH2 (ends and bridges not checked, also called Compound 40) [Cmpd 40, [K^18(mPEG40KD)]-Cmpd 37]", "EC50 (nM), cAMP accumulation (HTRF)": 0.85}
{"binder": "CNTATCATQRLANFLVHSSNNFGPIK(mPEG40KD)PPTNVGSNTY-NH2 (ends and bridges not checked, also called Compound 34) [Cmpd 34, [K^27(mPEG40KD)]-Cmpd 16]", "EC50 (nM), cAMP accumulation (HTRF)": 0.296}
